For each of the compounds below, state its pIC50.
TARGET SYSTEM: CDC7/DBF4 (Cell division cycle 7-related protein kinase/Activator of S phase kinase) (Homo sapiens, UniProt O00311)
PROCEDURE SUMMARY: Inhibition of recombinant human Cdc7 (1 to 574 residues)/human N-terminal GST-tagged DBF4 (1 to 674 residues) expressed in baculovirus expression system using His-tagged MCM2 as substrate preincubated for 10 mins followed by ATP addition by HTRF assay
Just so you know, pIC50 here is -log10 of the concentration in molar units; reply with that number alone.

Ask | Could you tell me which pIC50 is on file for CN1C(=O)c2sc(-c3ccncc3)cc2NC1(C)C ?
Reply | 6.35

Ask | And what about the compound CCC1(C)NC(=O)c2sc(-c3ccncc3)cc2N1 (centres undefined) ?
Reply | 8.12

Ask | And what about the compound Cc1n[nH]cc1-c1cc2c(s1)C(=O)N[C@]1(CC[C@@](O)(C3CCCCC3)CC1)N2 ?
Reply | 6.42

Ask | And what about the compound CC(C)C1(C)NC(=O)c2sc(-c3ccncc3)cc2N1 (centres undefined) ?
Reply | 8.09

====

TARGET SYSTEM: UniProt Q13464
PROCEDURE SUMMARY: Inhibition of recombinant human N-terminal GST-tagged ROCK1 (1 to 477 residues) expressed in baculovirus expression system using biotin-STK substrate-2 as substrate preincubated for 5 mins followed by ATP addition after 2 hrs by TR-FRET assay
READOUT TYPE: IC50
Hi, when you answer, please include the unit after the number. Thanks!

Ask | Could you tell me which IC50 is on file for Cc1n[nH]cc1-c1cc2c(s1)C(=O)N[C@]1(CC[C@](O)(C3CCCCC3)CC1)N2 ?
Reply | 2.9 µM

Ask | And what about the compound Cc1n[nH]cc1-c1cc2c(s1)C(=O)NC1(CCCCC1)N2 ?
Reply | 0.048 µM

Ask | And what about the compound CC1(C)NC(=O)c2cc(-c3ccncc3)sc2N1 ?
Reply | 0.1 µM

Ask | And what about the compound CN1c2c(sc(-c3cn[nH]c3)c2Br)C(=O)NC1(C)C ?
Reply | 0.022 µM

Ask | And what about the compound Cc1n[nH]cc1-c1cc2c(s1)C(=O)N[C@]1(CC[C@@](O)(c3ccc(F)cc3)CC1)N2 ?
Reply | 0.13 µM

Ask | And what about the compound Cc1n[nH]cc1-c1cc2c(s1)C(=O)N[C@]1(CC[C@](O)(c3ccc(F)cc3)CC1)N2 ?
Reply | 0.82 µM

Ask | And what about the compound CC1(C)Nc2cc(-c3ccncc3)sc2C(=O)N1Cc1ccccc1 ?
Reply | 0.0015 µM

Ask | And what about the compound CCc1n[nH]cc1-c1cc2c(s1)C(=O)NC(C)(C)N2C ?
Reply | 0.35 µM

Ask | And what about the compound Cc1n[nH]cc1-c1cc2c(s1)C(=O)NC(C)(CC(F)(F)F)N2C (stereo unspecified) ?
Reply | 0.022 µM

Ask | And what about the compound O=C1NC2(CCCCCC2)Nc2cc(-c3ccncc3)sc21 ?
Reply | 0.037 µM

Ask | And what about the compound CN1c2cc(-c3ccncc3)sc2C(=O)NC1(C)C ?
Reply | 0.14 µM

====

TARGET SYSTEM: CDC7/DBF4 (Cell division cycle 7-related protein kinase/Activator of S phase kinase) (Homo sapiens, UniProt O00311)
PROCEDURE SUMMARY: Inhibition of recombinant human Cdc7 (1 to 574 residues)/human N-terminal GST-tagged DBF4 (1 to 674 residues) expressed in baculovirus expression system using His-tagged MCM2 as substrate preincubated for 10 mins followed by ATP addition by HTRF assay
READOUT TYPE: IC50

Ask | Could you tell me which IC50 is on file for CC1(C)Nc2cc(-c3ccncc3)sc2C(=O)N1Cc1ccccc1 ?
Reply | > 10000 nM

Ask | And what about the molecule Cc1c(-c2cn[nH]c2)sc2c1N(C)C(C)(C)NC2=O ?
Reply | 14 nM

Ask | And what about the molecule O=C1NC2(CCCCCC2)Nc2cc(-c3ccncc3)sc21 ?
Reply | 3.6 nM

Ask | And what about the molecule O=C1NC2(CCCC2)Nc2cc(-c3ccncc3)sc21 ?
Reply | 8.2 nM

Ask | And what about the molecule Cc1n[nH]cc1-c1cc2c(s1)C(=O)N[C@]1(CC[C@@](O)(c3ccc(F)cc3)CC1)N2 ?
Reply | 170 nM

Ask | And what about the molecule CN1c2cc(-c3cn[nH]c3)sc2C(=O)NC1(C)C ?
Reply | 8.4 nM

Ask | And what about the molecule O=c1[nH]c(=O)c2sc(-c3ccncc3)cc2[nH]1 ?
Reply | 690 nM

Ask | And what about the molecule Cc1n[nH]cc1-c1cc2c(s1)C(=O)N[C@]1(CC[C@](O)(C3CCCCC3)CC1)N2 ?
Reply | 2 nM

Ask | And what about the molecule Cc1n[nH]cc1-c1cc2c(s1)C(=O)NC(C)(CC(F)(F)F)N2C (stereo not given) ?
Reply | 1 nM

Ask | And what about the molecule Cc1n[nH]cc1-c1cc2c(s1)C(=O)N[C@]1(CC[C@](O)(c3ccc(F)cc3)CC1)N2 ?
Reply | 1.2 nM

Reference source for all entries: ChEMBL document CHEMBL4177537
